Recorded values, source the RNAGym collection of RNA variant scans (doi:10.1101/gad.245936.114).

B1: tRNA (parent)
chain: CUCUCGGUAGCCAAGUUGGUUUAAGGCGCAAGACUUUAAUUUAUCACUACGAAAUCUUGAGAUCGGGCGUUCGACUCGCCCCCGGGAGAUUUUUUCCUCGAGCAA

variants of: B1; experiment: nonsense suppression (GFP-seq) (ratio to wild type); higher = more function; SUP4oc tRNA, yeast GFP reporter sort-seq
This sample holds only a part of the variants without activity.
READOUT: nonsense suppression

Examples with their reported nonsense suppression follow.
VARIANT_LABEL | READOUT | TEST_RESULT
A9G U20G C75G | nonsense suppression | 0.831
C3U U4C C5G G7U U8A A9G G10C C12A U17A U57A | nonsense suppression | ≤ 0.026
C3U C29G C83G G88C | nonsense suppression | 0.993
A60G G78U | nonsense suppression | 0.0498

nonsense suppression for C5G A13G G78U ? ≤ 0.026
